target: T1, PSMA Fab; assay: binding ELISA; PSMA Fab titrated on plate-captured biotinylated peptide
T1 construct: also called 006 PSMA Fab; anti-PSMA Fab
Where no end group is shown, it is not given here.
# if measured EC50 < 10 nM: Satisfied  # else: Not satisfied

binder: LDKWCVPKWMCSGL [Peptide-232]
classification: Satisfied
--
binder: GEKWCIPDWMCSGF [Peptide-233]
classification: Satisfied
--
binder: DVKLCKPEWMCYGL [Peptide-236]
classification: Not satisfied
--
binder: LMKWCTPRWMCAAE (cysteine pairing not given here; also: biotinylated, site not given here, PSMA mask peptide) [Peptide-179]
classification: Not satisfied
--
binder: LDNWCKPSWMCTGF [Peptide-227]
classification: Satisfied
--
binder: IDIRCTPIWMCVGF [Peptide-239]
classification: Satisfied
--
binder: IPKSCIPSWMCTGF [Peptide-225]
classification: Satisfied
--
binder: VEKLCTPIWMCLGF [Peptide-235]
classification: Not satisfied
--
binder: HVKLCKPAWMCQGL [Peptide-219]
classification: Satisfied
